- Test system: RPMI 8226
- method_description: CellTiter-Glo cell viability, RPMI 8226
- Assay type: cell-based
- experimental_parameters: Homo sapiens, RPMI-8226, 72 h, read-out: Anti-proliferative IC50

molecule_smiles	result_units	IC50
Cc1c2c(nn1C)CSCc1cc(n(C)n1)CSc1cc(c3ccccc3c1)OCCCc1c(C(=O)O)n(C)c3c-2c(Cl)ccc13	nM	62
CO[C@H]1/C=C/C[C@H](C)[C@@H](C)S(=O)(=O)NC(=O)c2ccc3c(c2)N(C[C@@H]2CC[C@H]21)C[C@@]1(CCCc2cc(Cl)ccc21)CO3	nM	291

* * *

- method_description: Protein-binding assay with equilibrium dialysis in cell culture medium
- Format: in vitro ADME
- experimental_parameters: bovine, cell culture medium with 10% fetal calf serum

compound	fraction unbound
Cc1c2c(nn1C)CSCc1cc(n(C)n1)CSc1cc(c3ccccc3c1)OCCCc1c(C(=O)O)n(C)c3c-2c(Cl)ccc13 [AZD5991]	0.021
CO[C@H]1/C=C/C[C@H](C)[C@@H](C)S(=O)(=O)NC(=O)c2ccc3c(c2)N(C[C@@H]2CC[C@H]21)C[C@@]1(CCCc2cc(Cl)ccc21)CO3 [AMG176]	0.01
